Attribution: patent US12678509B2

tested.system: BIR3 domain of cIAP1 (Homo sapiens, UniProt Q13490)
Sequence (Q13490 253-363 limits assumed): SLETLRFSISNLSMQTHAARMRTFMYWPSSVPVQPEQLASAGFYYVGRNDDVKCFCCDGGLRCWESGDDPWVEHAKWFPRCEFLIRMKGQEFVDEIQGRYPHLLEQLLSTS
assay.details: Fluorescence polarization assay
condition.context: SMAC-FITC probe, Ki calculated from IC50
pKi: −log10 of the molar value.
List of pKi values.
experimental.readout: pKi

{"columns": ["molecule", "tested.system", "observed.measurement"],
 "data": [
  ["C=CCC1(CC=C)C[C@@H]2SCC[C@H](NC(=O)[C@H](C)NC)C(=O)N2[C@@H]1C(=O)N[C@H]1c2ccccc2C[C@H]1OCC#CC#CCO[C@@H]1Cc2ccccc2[C@@H]1NC(=O)[C@H]1N2C(=O)[C@@H](NC(=O)[C@H](C)NC)CCS[C@H]2CC1(CC=C)CC=C [Compound 18n]", "BIR3 domain of cIAP1 (Homo sapiens, UniProt Q13490)", "7.00 to 7.30"],
  ["CN[C@@H](C)C(=O)N[C@H]1CCS[C@H]2CC(C)(C)[C@@H](C(=O)N[C@H]3c4ccccc4C[C@H]3OCCCCCCO[C@@H]3Cc4ccccc4[C@@H]3NC(=O)[C@H]3N4C(=O)[C@@H](NC(=O)[C@H](C)NC)CCS[C@H]4CC3(C)C)N2C1=O [Compound 18b]", "BIR3 domain of cIAP1 (Homo sapiens, UniProt Q13490)", "≥ 7.30"],
  ["CN[C@@H](C)C(=O)N[C@H]1CCS[C@H]2CC(C)(C)[C@@H](C(=O)N[C@H]3c4ccccc4C[C@H]3OCCS(=O)(=O)CCO[C@@H]3Cc4ccccc4[C@@H]3NC(=O)[C@H]3N4C(=O)[C@@H](NC(=O)[C@H](C)NC)CCS[C@H]4CC3(C)C)N2C1=O [Compound 18h]", "BIR3 domain of cIAP1 (Homo sapiens, UniProt Q13490)", "≥ 7.30"],
  ["CN[C@@H](C)C(=O)N[C@H]1CCS[C@H]2CC(C)(C)[C@@H](C(=O)N[C@H]3c4ccccc4C[C@H]3OCC#Cc3cccc(C#CCO[C@@H]4Cc5ccccc5[C@@H]4NC(=O)[C@H]4N5C(=O)[C@@H](NC(=O)[C@H](C)NC)CCS[C@H]5CC4(C)C)c3)N2C1=O [Compound 18d]", "BIR3 domain of cIAP1 (Homo sapiens, UniProt Q13490)", "≥ 7.30"],
  ["CNC(C)(C)C(=O)N[C@H]1CCS[C@H]2CC(C)(C)[C@@H](C(=O)N[C@H]3c4ccccc4C[C@H]3OCC#CC#CCO[C@@H]3Cc4ccccc4[C@@H]3NC(=O)[C@H]3N4C(=O)[C@@H](NC(=O)C(C)(C)NC)CCS[C@H]4CC3(C)C)N2C1=O [Compound 18k]", "BIR3 domain of cIAP1 (Homo sapiens, UniProt Q13490)", "7.00 to 7.30"],
  ["CN[C@@H](C)C(=O)N[C@H]1CCS[C@H]2CC(C)(C)[C@@H](C(=O)N[C@H]3c4ccccc4C[C@H]3OCC#Cc3ccc(CO[C@@H]4Cc5ccccc5[C@@H]4NC(=O)[C@H]4N5C(=O)[C@@H](NC(=O)[C@H](C)NC)CCS[C@H]5CC4(C)C)cc3)N2C1=O [Compound 18e]", "BIR3 domain of cIAP1 (Homo sapiens, UniProt Q13490)", "7.00 to 7.30"],
  ["CC[C@H](NC)C(=O)N[C@H]1CCS[C@H]2CC(C)(C)[C@@H](C(=O)N[C@H]3c4ccccc4C[C@H]3OCC#CC#CCO[C@@H]3Cc4ccccc4[C@@H]3NC(=O)[C@H]3N4C(=O)[C@@H](NC(=O)[C@H](CC)NC)CCS[C@H]4CC3(C)C)N2C1=O [Compound 18m]", "BIR3 domain of cIAP1 (Homo sapiens, UniProt Q13490)", "≥ 7.30"],
  ["CN[C@@H](C)C(=O)N[C@H]1CCS[C@H]2CC(C)(C)[C@@H](C(=O)N[C@H](CCC(=O)NCCNC(=O)CC[C@@H](NC(=O)[C@H]3N4C(=O)[C@@H](NC(=O)[C@H](C)NC)CCS[C@H]4CC3(C)C)c3ccccc3)c3ccccc3)N2C1=O [Compound 18l]", "BIR3 domain of cIAP1 (Homo sapiens, UniProt Q13490)", "≥ 7.30"],
  ["CN[C@@H](C)C(=O)N[C@H]1CCS[C@H]2CC(C)(C)[C@@H](C(=O)N[C@H](CCOCC#CC#CCOCC[C@@H](NC(=O)[C@H]3N4C(=O)[C@@H](NC(=O)[C@H](C)NC)CCS[C@H]4CC3(C)C)c3ccccc3)c3ccccc3)N2C1=O [Compound 18i]", "BIR3 domain of cIAP1 (Homo sapiens, UniProt Q13490)", "≥ 7.30"],
  ["CN[C@@H](C)C(=O)N[C@H]1CCS[C@H]2CC(C)(C)[C@@H](C(=O)N[C@H]3c4ccccc4C[C@H]3OCC#Cc3ccc(C#CCO[C@@H]4Cc5ccccc5[C@@H]4NC(=O)[C@H]4N5C(=O)[C@@H](NC(=O)[C@H](C)NC)CCS[C@H]5CC4(C)C)cc3)N2C1=O [Compound 18c]", "BIR3 domain of cIAP1 (Homo sapiens, UniProt Q13490)", "≥ 7.30"],
  ["CN[C@@H](C)C(=O)N[C@H]1CCS[C@H]2CC(C)(C)[C@@H](C(=O)N[C@H]3c4ccccc4C[C@H]3OCC#CCO[C@@H]3Cc4ccccc4[C@@H]3NC(=O)[C@H]3N4C(=O)[C@@H](NC(=O)[C@H](C)NC)CCS[C@H]4CC3(C)C)N2C1=O [Compound 18j]", "BIR3 domain of cIAP1 (Homo sapiens, UniProt Q13490)", "≥ 7.30"],
  ["CN[C@@H](C)C(=O)N[C@H]1CCO[C@H]2CC(C)(C)[C@@H](C(=O)N[C@H]3c4ccccc4C[C@H]3OCC#CC#CCO[C@@H]3Cc4ccccc4[C@@H]3NC(=O)[C@H]3N4C(=O)[C@@H](NC(=O)[C@H](C)NC)CCO[C@H]4CC3(C)C)N2C1=O [Compound 18q]", "BIR3 domain of cIAP1 (Homo sapiens, UniProt Q13490)", "7.00 to 7.30"],
  ["CN[C@@H](C)C(=O)N[C@H]1CCS[C@H]2CC3(CC=CC3)[C@@H](C(=O)N[C@H]3c4ccccc4C[C@H]3OCC#CC#CCO[C@@H]3Cc4ccccc4[C@@H]3NC(=O)[C@H]3N4C(=O)[C@@H](NC(=O)[C@H](C)NC)CCS[C@H]4CC34CC=CC4)N2C1=O [Compound 18o]", "BIR3 domain of cIAP1 (Homo sapiens, UniProt Q13490)", "≥ 7.30"],
  ["CN[C@@H](C)C(=O)N[C@H]1CCS[C@H]2CC(C)(C)[C@@H](C(=O)N[C@H]3c4ccccc4C[C@H]3OCc3ccc(CO[C@@H]4Cc5ccccc5[C@@H]4NC(=O)[C@H]4N5C(=O)[C@@H](NC(=O)[C@H](C)NC)CCS[C@H]5CC4(C)C)cc3)N2C1=O [Compound 18g]", "BIR3 domain of cIAP1 (Homo sapiens, UniProt Q13490)", "≥ 7.30"]
]}
